Where do these numbers come from? They come from ChEMBL document CHEMBL5291721.

We begin with a simple list: items and their reported AC50.
- target_entity: Progesterone receptor (Homo sapiens, UniProt P06401); further: assay procedure not described here
- Sequence (P06401 whole entry): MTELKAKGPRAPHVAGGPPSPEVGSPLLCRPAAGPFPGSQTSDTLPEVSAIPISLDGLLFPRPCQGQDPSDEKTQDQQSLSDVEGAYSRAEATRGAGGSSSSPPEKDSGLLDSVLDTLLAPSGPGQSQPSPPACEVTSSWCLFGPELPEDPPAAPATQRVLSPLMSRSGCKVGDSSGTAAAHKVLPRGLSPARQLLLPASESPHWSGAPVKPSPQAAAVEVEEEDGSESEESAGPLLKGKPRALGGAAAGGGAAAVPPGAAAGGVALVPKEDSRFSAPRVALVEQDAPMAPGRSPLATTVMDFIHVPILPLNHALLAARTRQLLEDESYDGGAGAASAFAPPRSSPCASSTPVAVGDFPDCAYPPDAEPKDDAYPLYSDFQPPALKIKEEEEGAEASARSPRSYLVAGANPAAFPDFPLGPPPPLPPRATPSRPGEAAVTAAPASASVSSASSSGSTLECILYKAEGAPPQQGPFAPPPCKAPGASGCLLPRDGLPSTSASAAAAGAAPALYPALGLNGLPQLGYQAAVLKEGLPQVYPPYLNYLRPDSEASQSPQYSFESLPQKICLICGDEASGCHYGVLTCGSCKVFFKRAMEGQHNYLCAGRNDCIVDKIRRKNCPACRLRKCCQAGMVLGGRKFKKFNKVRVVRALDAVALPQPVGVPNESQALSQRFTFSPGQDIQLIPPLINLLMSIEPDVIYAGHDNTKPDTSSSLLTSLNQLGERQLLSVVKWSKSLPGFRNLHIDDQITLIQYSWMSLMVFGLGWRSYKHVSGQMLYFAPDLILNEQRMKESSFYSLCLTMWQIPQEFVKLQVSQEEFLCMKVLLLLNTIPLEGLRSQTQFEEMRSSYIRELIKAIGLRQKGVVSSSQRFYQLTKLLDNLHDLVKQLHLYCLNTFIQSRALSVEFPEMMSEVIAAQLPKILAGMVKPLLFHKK
- Type: functional
result_type: AC50

molecule="CN(C(=O)c1c(O)c2ccccc2n(C)c1=O)c1ccccc1 [ROQUINIMEX]" result_type=AC50 recorded_result="> 30 µM"
molecule="O=C1CN(/N=C/c2ccc(-c3ccc([N+](=O)[O-])cc3)o2)C(O)=N1 [DANTROLENE]" result_type=AC50 recorded_result="> 10 µM"
molecule="O=C1CN=C(c2ccccn2)c2cc(Br)ccc2N1 [BROMAZEPAM]" result_type=AC50 recorded_result="> 10 µM"
molecule="CC(C)N(CCC(C(N)=O)(c1ccccc1)c1ccccn1)C(C)C (stereo not drawn) [DISOPYRAMIDE]" result_type=AC50 recorded_result="> 30 µM"
molecule="Cc1cc2cc3c(C)cc(=O)oc3c(C)c2o1 [TRIOXSALEN]" result_type=AC50 recorded_result="> 30 µM"
molecule="C=CC[C@@H]1/C=C(\\C)C[C@H](C)C[C@H](OC)[C@H]2O[C@@](O)(C(=O)C(=O)N3CCCC[C@H]3C(=O)O[C@H](/C(C)=C/[C@@H]3CC[C@@H](O)[C@H](OC)C3)[C@H](C)[C@@H](O)CC1=O)[C@H](C)C[C@@H]2OC [TACROLIMUS ANHYDROUS]" result_type=AC50 recorded_result="> 30 µM"
molecule="Cc1cccc(N2CC(CO)OC2=O)c1 (stereo not drawn) [TOLOXATONE]" result_type=AC50 recorded_result="> 30 µM"
molecule="CCCCC1C(=O)N(c2ccccc2)N(c2ccccc2)C1=O [PHENYLBUTAZONE]" result_type=AC50 recorded_result="> 10 µM"
